Data origin: patent EP0606463B1

Known NMB-R Transfected Cells [^3H]IP Alone (10 µ M) of a selection of molecules
- ASSAY_TARGET: NMB Receptor (Rattus norvegicus, UniProt P24053)
- Construct: a full length NMB-preferring bombesin receptor clone generated from rat esophagus; expressed in transfected cells; host or cells: BALB 3T3 cells
- Sequence (P24053 whole entry): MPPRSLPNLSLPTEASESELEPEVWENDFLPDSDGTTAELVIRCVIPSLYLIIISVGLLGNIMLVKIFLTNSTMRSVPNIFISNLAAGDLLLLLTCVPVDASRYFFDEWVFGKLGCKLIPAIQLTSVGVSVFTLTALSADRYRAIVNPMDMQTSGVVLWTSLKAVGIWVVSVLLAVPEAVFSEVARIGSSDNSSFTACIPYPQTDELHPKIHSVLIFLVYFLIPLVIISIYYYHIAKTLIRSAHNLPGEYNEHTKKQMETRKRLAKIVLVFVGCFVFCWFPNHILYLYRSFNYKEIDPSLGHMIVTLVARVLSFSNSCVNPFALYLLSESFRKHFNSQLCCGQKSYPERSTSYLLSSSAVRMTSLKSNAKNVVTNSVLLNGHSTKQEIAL
- PROTOCOL_NOTES: [3H]inositol phosphates (IP) in NMB-R transfected cells
- Assay type: cell-based
- APPLIED_CONDITIONS: analog 10 µM alone; no-additive control 13 ± 3
Where a SMILES comes first, the peptide text is derived from it. Bridges are numbered along the chain shown (N, C = ends). [ ]: non-standard residue; d: D form. 2Nal = N[C@@H](Cc1ccc2ccccc2c1)C(=O)O; d2Nal = N[C@H](Cc1ccc2ccccc2c1)C(=O)O
VALUE_TYPE: NMB-R Transfected Cells [^3H]IP Alone (10 µ M) (dpm x 10^3)

# MOLECULE, UNITS, MEASURED
rows = [
    ("CC(C)[C@@H]1NC(=O)[C@H](Cc2c[nH]cn2)NC(=O)[C@@H](Cc2c[nH]c3ccccc23)NC(=O)[C@H](Cc2ccc(O)cc2)NC(=O)[C@@H](NC(=O)[C@H](N)Cc2ccc3ccccc3c2)CSSC[C@@H](C(=O)N[C@@H](Cc2ccc3ccccc3c2)C(N)=O)NC1=O [Analog #14, [His^5]-cyclo SS-octa] (H-[d2Nal]CY[dW]HVC[2Nal]-NH2; disulfide 2-7; N-terminus assumed)", "dpm x 10^3", 8),
    ("C[C@@H](O)[C@H](NC(=O)[C@@H]1CSSC[C@H](NC(=O)[C@H](N)Cc2ccc3ccccc3c2)C(=O)N[C@@H](Cc2ccc(O)cc2)C(=O)N[C@H](Cc2c[nH]c3ccccc23)C(=O)N[C@@H](CCCCN)C(=O)N[C@@H](Cc2ccc3ccccc3c2)C(=O)N1)C(N)=O [Analog #2, [Nal^6,Thr^8]-cyclo SS-octa]", "dpm x 10^3", 11),
    ("CC(C)[C@@H]1NC(=O)[C@H](CCCCN)NC(=O)[C@@H](Cc2c[nH]c3ccccc23)NC(=O)[C@H](Cc2ccc(O)cc2)NC(=O)[C@H](NC(=O)[C@H](N)Cc2ccc3ccccc3c2)CSSC[C@@H](C(=O)N[C@@H](Cc2ccc3ccccc3c2)C(N)=O)NC1=O [Analog #10, [D-Cys^2]-cyclo SS-octa] (H-[d2Nal][dC]Y[dW]KVC[2Nal]-NH2; disulfide 2-7; N-terminus assumed)", "dpm x 10^3", 10),
    ("NCCCC[C@@H]1NC(=O)[C@@H](Cc2c[nH]c3ccccc23)NC(=O)[C@H](Cc2ccc(O)cc2)NC(=O)[C@@H](NC(=O)[C@H](N)Cc2ccc3ccccc3c2)CSSC[C@@H](C(=O)N[C@@H](Cc2ccc3ccccc3c2)C(N)=O)NC(=O)[C@H](Cc2ccccc2)NC1=O [Analog #13, [Phe^6]-cyclo SS-octa] (H-[d2Nal]CY[dW]KFC[2Nal]-NH2; disulfide 2-7; N-terminus assumed)", "dpm x 10^3", 10),
]
